Where do the numbers come from? From patent US8415342B2.

Assign MIC Range to each entry below.
Test system: Haemophilus influenzae
Test: MIC, CLSI broth microdilution, clinical isolates
Type: cell-based
Details: Haemophilus influenzae (all phenotypes, N = 40)

Inquiry: Form entry - test system: Haemophilus influenzae; read-out: MIC Range; compound: NC[C@H]1O[C@H](O[C@H]2[C@H](O)[C@@H](O[C@H]3O[C@H](CO)[C@@H](O)[C@H](N)[C@H]3O)[C@H](N)C[C@@H]2N)[C@H](N)C[C@@H]1O
Reply text: 0.06 to 4 µg/mL

Inquiry: Repeat with C[C@H]1COc2c(N3CCN(C)CC3)c(F)cc3c(=O)c(C(=O)O)cn1c23
Reply text: 0.008 to 0.015 µg/mL
